Please go through the items and note down their pEC50.
Molecular target: T1, full length human TROP2 on 293F-TROP2 cells (human, UniProt P09758 27-323)
T1 construct: also called 293F-TROP2 cells (clone ID #3A8); cell surface TROP2
T1 sequence: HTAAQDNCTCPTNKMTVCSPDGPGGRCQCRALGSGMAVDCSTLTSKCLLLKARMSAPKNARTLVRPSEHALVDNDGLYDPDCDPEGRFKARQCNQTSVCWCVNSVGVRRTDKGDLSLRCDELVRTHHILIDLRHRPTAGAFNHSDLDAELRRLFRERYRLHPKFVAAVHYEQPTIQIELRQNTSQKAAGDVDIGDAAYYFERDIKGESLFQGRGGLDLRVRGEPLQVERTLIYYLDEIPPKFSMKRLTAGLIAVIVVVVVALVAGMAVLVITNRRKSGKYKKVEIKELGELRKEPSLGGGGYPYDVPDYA
Test: FACS on 293F-TROP2 cells, MFI
Here pEC50 is given on a logarithmic scale as minus log10 of the concentration in mol/L.

For huA1E4F7D4-V16 (antibody, human IgG1, kappa, V domains shown, Positions of the X residues are given in the claims; also called humanized antibody huA1E4F7D4-V16) VH: QVQLVQSGAEVKKPGASVKVSCKASGYSFTTHWIHWVRQAPGQGLEWIGTIFPSNAYAVYNQKFRDRATMTADTSISTAYIELSRLRSDDTAVYYCARASYFDYWGQGTTVTVSS VL: EIVLTQSPATLSLSPGERATLSCRASQNIGTSIHWFQQKPGGAPRLLIKYASESISGIPSRFSGSGSGTDFTLTISSLEPEDFAVYYCQHSHSWPFTFGQGTKLEIKR the binder record lists pEC50 as 9.23

Looking up benchmark (in house prepared sacituzumab) (antibody, human IgG1, kappa, V domains shown, also called BM; BM1) VH: SVQLQQSGSELKKPGASVKVSCKASGYTFTNYGMNWVKQAPGQGLKWMGWINTYTGEPTYTDDFKGRFAFSLDTSVSTAYLQISSLKADDTAVYFCARGGFGSSYWYFDVWGQGSLVTVSS VL: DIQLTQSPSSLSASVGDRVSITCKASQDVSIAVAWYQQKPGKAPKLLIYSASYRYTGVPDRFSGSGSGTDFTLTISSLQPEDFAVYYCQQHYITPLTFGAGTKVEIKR , I see its pEC50 listed as 8.88

Field pEC50 (entry chimeric A1E4F7D4 (antibody, human IgG1, kappa, V domains shown, also called chimeric antibody A1E4F7D4) VH: QVQLQQSGAELAKPGTSVKMSCEASGYSFTTHWIHWMKQRPGQGLEWIGTIFPSNAYAVYNQKFRDRAIMTADRSSTTAYIQLTGLTSEDSAVYYCARASYFDYWGQGTTLTVSS VL: DILLTQSPATLSVSPGERVTFSCRASQNIGTSIHWFQQRTTGSPRLLIKYASESISGIPSRFSGSGSGTDFTLHINSVESEDIAHYYCQHSHSWPFTFGSGTKLEIQR ) reads 9.24
